This listing pairs compounds with measured EC50.
TARGET: HEK293 cells expressing 17β-HSD13 (Homo sapiens (Human))
Sequence (Q7Z5P4 20-300): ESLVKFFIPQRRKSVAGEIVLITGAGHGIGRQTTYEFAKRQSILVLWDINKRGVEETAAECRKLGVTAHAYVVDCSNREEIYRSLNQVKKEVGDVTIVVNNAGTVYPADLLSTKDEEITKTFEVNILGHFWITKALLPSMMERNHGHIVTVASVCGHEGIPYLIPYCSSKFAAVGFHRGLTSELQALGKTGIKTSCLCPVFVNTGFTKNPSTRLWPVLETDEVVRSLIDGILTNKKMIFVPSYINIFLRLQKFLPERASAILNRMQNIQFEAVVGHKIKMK
PROTOCOL SUMMARY: 17β-HSD13 cell-based assay (β-estradiol conversion, LC-MS/MS)
SETUP CONDITIONS: HEK293 cells stably expressing 17β-HSD13 (footnote b); read-out: EC50, nM Stable
EXPERIMENTAL ENDPOINT: EC50 (nM)

| COMPOUND SMILES | UNIT NAME | MEASURED VALUE |
| --- | --- | --- |
| O=C1N(Cc2ccccc2)C(=O)C2(CC2)N1Cc1nnc(-c2ccc(F)c(O)c2Cl)s1 | nM | 40.9 |
| O=C1N(Cc2nnc(-c3ccc(F)c(O)c3F)s2)C2(CC2)C(=O)N1C1(c2ccccc2)CC1 | nM | 4.74 |
| CCN1C(=O)N(Cc2nnc(-c3cc(O)cc(C(F)(F)F)c3)s2)C2(CC2)C1=O | nM | 144 |
| C[C@@H](c1ccccc1)N1C(=O)N(Cc2nnc(-c3ccc(F)c(O)c3F)s2)C2(CC2)C1=O | nM | 10.4 |
| CC[C@@H](C)N1C(=O)N(Cc2nnc(-c3ccc(F)c(O)c3F)s2)C2(CC2)C1=O | nM | 15.7 |
| Cc1c(-c2nnc(CN3C(=O)N([C@@H](c4ccccc4)C(F)(F)F)C(=O)C34CC4)s2)ccc(F)c1O | nM | 108 |
| O=C1N(C2CCC2)C(=O)C2(CC2)N1Cc1nnc(-c2ccc(F)c(O)c2F)s1 | nM | 35.9 |
| O=C1N(CC(F)(F)F)C(=O)C2(CC2)N1Cc1nnc(-c2cc(F)c(F)c(O)c2F)s1 | nM | 35 |

These data points were gathered from patent US20250026745A1.
